Reference source for all entries: paper PMC9033141

recorded endpoint: melting point

Please review the following examples before continuing.
1) CCOC(=O)c1sc(N(CCC(=O)O)c2ccc(S(N)(=O)=O)cc2)nc1C [Compound 31]	221 to 222 °C
2) NS(=O)(=O)c1ccc(NCC(CC(=O)NN=Cc2ccc(C(=O)O)cc2)C(=O)NN=Cc2ccc(C(=O)O)cc2)c(Cl)c1 (stereo not drawn) [Compound 18b]	294 to 295 °C
3) NS(=O)(=O)c1ccc(NCC(CC(=O)NN=Cc2ccc(Cl)cc2)C(=O)NN=Cc2ccc(Cl)cc2)c(Cl)c1 (stereo not drawn) [Compound 12b]	211 to 212 °C

Cc1cc(C)n(C(=O)CC(CNc2ccc(S(N)(=O)=O)cc2Cl)C(=O)n2nc(C)cc2C)n1 (stereo not drawn) [Compound 20] yielded melting point of 201 to 202 °C

NS(=O)(=O)c1ccc(NCC(CC(=O)NN=Cc2cccc(Cl)c2)C(=O)NN=Cc2cccc(Cl)c2)c(Cl)c1 (stereo not drawn) [Compound 11b] yielded melting point of 175 to 176 °C

NS(=O)(=O)c1ccc(NCC(CC(=O)NN=Cc2cccc(O)c2)C(=O)NN=Cc2cccc(O)c2)c(Cl)c1 (stereo not drawn) [Compound 8b] yielded melting point of 119 to 120 °C

COC(=O)CCN(c1ccc(S(N)(=O)=O)cc1)c1nc(C)cs1 [Compound 28] yielded melting point of 72 to 73 °C

NS(=O)(=O)c1ccc(NCC(CC(=O)NN=Cc2ccccc2O)C(=O)NN=Cc2ccccc2O)c(Cl)c1 (stereo not drawn) [Compound 7b] yielded melting point of 204 to 205 °C

###

recorded endpoint: melting point

Please review the following examples before continuing.
1) COc1ccc(C=NNC(=O)CC(CNc2ccc(S(N)(=O)=O)cc2)C(=O)NN=Cc2ccc(OC)cc2)cc1 (stereo not shown) [Compound 14a]	168 to 169 °C
2) CCC(C)=NN1C(=O)CC(CNc2ccc(S(N)(=O)=O)cc2)C1=O (stereo not shown) [Compound 4a]	117 to 118 °C
3) Cc1csc(N(CCC(=O)O)c2ccc(S(N)(=O)=O)cc2)n1 [Compound 27]	162 to 163 °C
4) NS(=O)(=O)c1ccc(NCC(CC(=O)NN=Cc2ccc(O)cc2)C(=O)NN=Cc2ccc(O)cc2)c(Cl)c1 (stereo not shown) [Compound 9b]	226 to 227 °C
5) Cn1c(CC(CNc2ccc(S(N)(=O)=O)cc2Cl)c2n[nH]c(=S)n2C)n[nH]c1=S (stereo not shown) [Compound 24b]	151 to 152 °C
6) NS(=O)(=O)c1ccc(NCC(CC(=O)NN=Cc2cccc([N+](=O)[O-])c2)C(=O)NN=Cc2cccc([N+](=O)[O-])c2)c(Cl)c1 (stereo not shown) [Compound 16b]	199 to 200 °C
7) NS(=O)(=O)c1ccc(NCC(CC(=O)NN=Cc2ccc([N+](=O)[O-])cc2)C(=O)NN=Cc2ccc([N+](=O)[O-])cc2)cc1 (stereo not shown) [Compound 17a]	256 to 257 °C
8) NNC(=O)CC(CNc1ccc(S(N)(=O)=O)cc1)C(=O)NN (stereo not shown) [Compound 2a]	164 to 165 °C

CCOC(=O)c1sc(N(CCC(=O)NN=Cc2ccccc2)c2ccc(S(N)(=O)=O)cc2)nc1C [Compound 34] yielded melting point of 195 to 196 °C

Cc1ccc(C)n1NC(=O)CC(CNc1ccc(S(N)(=O)=O)cc1)C(=O)Nn1c(C)ccc1C (stereo not shown) [Compound 19a] yielded melting point of 195 to 196 °C

###

Molecular target: CAIX (Homo sapiens)
Construct: made in house
Assay: biochemical
Type: binding
Details: FTSA, pH 7.0, 37 °C; read-out: Observed Dissociation Constant (Kd_obs), CAIX
pKd: −log10 of the molar value.
recorded endpoint: pKd

Please review the following examples before continuing.
1) NS(=O)(=O)c1ccc(NCC(CC(=O)NN=Cc2ccccc2O)C(=O)NN=Cc2ccccc2O)cc1 (stereo not shown)	6.30
2) CCOC(=O)c1sc(N(CCC(=O)OC)c2ccc(S(N)(=O)=O)cc2)nc1C	6.72

I = Cn1c(CC(CNc2ccc(S(N)(=O)=O)cc2Cl)c2n[nH]c(=S)n2C)n[nH]c1=S (stereo not shown) [Compound 24b]
II = NS(=O)(=O)c1ccc(NCC(CC(=O)NN=Cc2ccccc2Cl)C(=O)NN=Cc2ccccc2Cl)cc1 (stereo not shown) [Compound 10a]
Lower value of pKd belongs to which: I or II ? // return label of chosen record
II

###

Target: CAVA (Homo sapiens)
Construct: made in house; host or cells: E. coli
Sequence (P35218 39-305): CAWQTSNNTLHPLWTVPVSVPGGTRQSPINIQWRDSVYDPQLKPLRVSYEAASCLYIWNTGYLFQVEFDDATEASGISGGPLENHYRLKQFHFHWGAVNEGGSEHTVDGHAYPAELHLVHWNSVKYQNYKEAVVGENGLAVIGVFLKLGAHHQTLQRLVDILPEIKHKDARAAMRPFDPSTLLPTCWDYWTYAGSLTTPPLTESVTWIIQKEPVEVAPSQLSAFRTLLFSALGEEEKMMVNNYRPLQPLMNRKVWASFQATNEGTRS
Assay: Fluorescent thermal shift assay (FTSA), CAVA
Format: binding
Conditions: FTSA, pH 7.0, 37 °C; read-out: Observed Dissociation Constant (Kd_obs), CAVA
pKd: −log10 of the molar value.
recorded endpoint: pKd

1) Cc1cc(C)n(C(=O)CC(CNc2ccc(S(N)(=O)=O)cc2Cl)C(=O)n2nc(C)cc2C)n1 (stereo not drawn)	4.66
2) NS(=O)(=O)c1ccc(NCC(CC(=O)NN=Cc2ccccc2)C(=O)NN=Cc2ccccc2)c(Cl)c1 (stereo not drawn)	4.70

###

Molecular target: CAVII (Homo sapiens, UniProt P43166)
Construct: made in house; host or cells: E. coli
Sequence (P43166 whole entry): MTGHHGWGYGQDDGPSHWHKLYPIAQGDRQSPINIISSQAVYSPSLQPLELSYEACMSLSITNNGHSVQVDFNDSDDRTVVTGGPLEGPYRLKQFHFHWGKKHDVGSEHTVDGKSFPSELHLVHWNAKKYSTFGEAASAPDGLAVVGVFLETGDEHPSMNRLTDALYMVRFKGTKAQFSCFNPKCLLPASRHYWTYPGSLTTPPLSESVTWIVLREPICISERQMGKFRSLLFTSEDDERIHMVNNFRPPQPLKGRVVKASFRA
Test: Fluorescent thermal shift assay (FTSA), CAVII
Type: binding
Settings: 37 °C; calculated (Equation 5)
recorded endpoint: Intrinsic Gibbs energy change (ΔGint), CAVII (kJ/mol)
The answer is to be given in kJ/mol; state only the numeric part.

Please review the following examples before continuing.
1) COC(=O)CCN(c1ccc(S(N)(=O)=O)cc1)c1nc(C)cs1	-63.0
2) CCOC(=O)c1sc(N(CCC(=O)OC)c2ccc(S(N)(=O)=O)cc2)nc1C	-59.3
3) Cc1csc(N(CCC(=O)O)c2ccc(S(N)(=O)=O)cc2)n1	-61.7
4) NS(=O)(=O)c1ccc(N(CCC(=O)O)c2nc(-c3ccc(Cl)cc3)c(Cl)s2)cc1	-65.8
5) CCOC(=O)c1sc(N(CCC(=O)NN)c2ccc(S(N)(=O)=O)cc2)nc1C	-56.1
6) CCOC(=O)c1sc(N(CCC(=O)O)c2ccc(S(N)(=O)=O)cc2)nc1C	-55.0

// below: Intrinsic Gibbs energy change (ΔGint), CAVII requested for another compound
"Cc1csc(N(CCC(=O)NN)c2ccc(S(N)(=O)=O)cc2)n1" yielded Intrinsic Gibbs energy change (ΔGint), CAVII of -58.6

###

Biological target: CAI (Homo sapiens, UniProt P00915)
Construct: made in house; host or cells: E. coli
Sequence (P00915 whole entry): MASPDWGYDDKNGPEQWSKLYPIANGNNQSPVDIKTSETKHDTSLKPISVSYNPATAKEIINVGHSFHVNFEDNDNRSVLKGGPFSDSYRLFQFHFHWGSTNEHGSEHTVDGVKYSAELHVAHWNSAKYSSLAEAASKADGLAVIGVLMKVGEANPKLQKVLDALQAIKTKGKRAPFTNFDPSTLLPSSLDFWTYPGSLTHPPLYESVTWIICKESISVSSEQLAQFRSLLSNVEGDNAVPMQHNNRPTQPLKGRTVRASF
Test: biochemical
Type: binding
Details: FTSA, pH 7.0, 37 °C; read-out: Observed Dissociation Constant (Kd_obs), CAI
pKd: −log10 of the molar value.
recorded endpoint: pKd

Please review the following examples before continuing.
1) NS(=O)(=O)c1ccc(NCC(CC(=O)NN=Cc2ccccc2Cl)C(=O)NN=Cc2ccccc2Cl)cc1 (stereo not shown) [Compound 10a]	4.77
2) NS(=O)(=O)c1ccc(NCC(CC(=O)NN=Cc2ccccc2)C(=O)NN=Cc2ccccc2)cc1 (stereo not shown) [Compound 6a]	4.85
3) CCC(C)=NN1C(=O)CC(CNc2ccc(S(N)(=O)=O)cc2)C1=O (stereo not shown) [Compound 4a]	4.74

P = NS(=O)(=O)c1ccc(NCC(CC(=O)NN=Cc2ccccc2[N+](=O)[O-])C(=O)NN=Cc2ccccc2[N+](=O)[O-])cc1 (stereo not shown) [Compound 15a]
Q = NS(=O)(=O)c1ccc(NCC(CC(=O)NN=Cc2ccccc2O)C(=O)NN=Cc2ccccc2O)c(Cl)c1 (stereo not shown) [Compound 7b]
R = NS(=O)(=O)c1ccc(NCC(CC(=O)NNC(=S)Nc2ccccc2)C(=O)NNC(=S)Nc2ccccc2)c(Cl)c1 (stereo not shown) [Compound 23b]
S = COc1ccc(C=NNC(=O)CC(CNc2ccc(S(N)(=O)=O)cc2Cl)C(=O)NN=Cc2ccc(OC)cc2)cc1 (stereo not shown) [Compound 14b]
# sort list by recorded pKd, greatest to least Put the labels in the requested order and write them down.
R, S, Q, P
(R: 7.17, S: 6.29, Q: 6.00, P: 4.89)

###

Target: CAXIV (Homo sapiens, UniProt Q9ULX7)
Construct: made in house; host or cells: E. coli
Sequence (Q9ULX7 16-337): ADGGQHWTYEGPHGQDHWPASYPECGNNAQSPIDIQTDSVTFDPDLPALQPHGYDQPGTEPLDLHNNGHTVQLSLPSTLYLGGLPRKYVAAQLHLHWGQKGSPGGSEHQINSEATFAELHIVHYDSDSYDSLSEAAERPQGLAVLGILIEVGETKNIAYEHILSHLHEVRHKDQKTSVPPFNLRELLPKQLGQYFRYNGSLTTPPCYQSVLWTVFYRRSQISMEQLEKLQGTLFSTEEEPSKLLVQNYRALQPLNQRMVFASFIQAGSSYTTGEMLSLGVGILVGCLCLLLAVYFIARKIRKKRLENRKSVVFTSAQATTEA
Assay: Fluorescent thermal shift assay (FTSA), CAXIV;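 further: recombinant human CA XIV from E. coli, ANS-based thermal shift: Kd_obs fitted from melting temperature versus ligand concentration, ΔGint from Kd_obs corrected for deprotonated sulfonamide and Zn-water fractions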
Assay type: binding
Conditions: 37 °C; calculated (Equation 5)
recorded endpoint: Intrinsic Gibbs energy change (ΔGint), CAXIV (kcal/mol)
The answer is to be given in kcal/mol; state only the numeric part.

1. CCOC(=O)c1sc(N(CCC(=O)O)c2ccc(S(N)(=O)=O)cc2)nc1C	-13.8
2. COC(=O)CCN(c1ccc(S(N)(=O)=O)cc1)c1nc(C)cs1	-16.4
3. CCOC(=O)c1sc(N(CCC(=O)OC)c2ccc(S(N)(=O)=O)cc2)nc1C	-13.8
4. Cc1csc(N(CCC(=O)NN)c2ccc(S(N)(=O)=O)cc2)n1	-15.8

"Cc1csc(N(CCC(=O)O)c2ccc(S(N)(=O)=O)cc2)n1" yielded Intrinsic Gibbs energy change (ΔGint), CAXIV of -15.8

"NS(=O)(=O)c1ccc(N(CCC(=O)O)c2nc(-c3ccc(Cl)cc3)c(Cl)s2)cc1" yielded Intrinsic Gibbs energy change (ΔGint), CAXIV of -15.6

"CCOC(=O)c1sc(N(CCC(=O)NN)c2ccc(S(N)(=O)=O)cc2)nc1C" yielded Intrinsic Gibbs energy change (ΔGint), CAXIV of -14.3
